B1: Hairpin Ribozyme (parent)
chain: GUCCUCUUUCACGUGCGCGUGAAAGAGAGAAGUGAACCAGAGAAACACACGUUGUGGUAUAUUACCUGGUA

variants of: B1; assay: self-cleavage, relative activity (ratio to wild type); higher = more cleavage; co-transcriptional
Binary call on self-cleavage: true from 0.5 upward, false beneath that.

Example entries begin here.
mutation	class
U7G A24U	true
C18G C48U	false
C4G G21C	false

Lookup: Hi, just wondering whether A23U U58A shows self-cleavage of 0.5 or higher.
Found: true

Lookup: Hi, just wondering whether G27C G51A shows self-cleavage of 0.5 or higher.
Found: false

Lookup: Hi, just wondering whether C16U U53A shows self-cleavage of 0.5 or higher.
Found: true
